Every entry's value here was drawn from paper doi:10.1101/201277.

Each item that follows carries a reported Kd.
Target desc: Cra (FruR) (Escherichia coli strain 3.300 …, UniProt P0ACP1 1-334)
Sequence (P0ACP1 whole entry): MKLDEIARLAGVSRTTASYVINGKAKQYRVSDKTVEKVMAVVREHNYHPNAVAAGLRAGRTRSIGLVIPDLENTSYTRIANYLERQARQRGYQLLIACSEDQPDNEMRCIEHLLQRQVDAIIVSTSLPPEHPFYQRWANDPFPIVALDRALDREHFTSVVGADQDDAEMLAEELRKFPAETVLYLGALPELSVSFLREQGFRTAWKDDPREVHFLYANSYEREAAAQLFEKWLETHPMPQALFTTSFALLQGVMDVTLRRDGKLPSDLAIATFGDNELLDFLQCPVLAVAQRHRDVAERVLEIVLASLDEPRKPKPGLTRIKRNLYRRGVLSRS
Method: filter binding
Please respond with the number in nM and leave the unit unwritten.

Lookup: Annotate the binder fruB distal operator (filter binding) (dsDNA) DNA 1: TGTTGTGTGGGAGGCTGAATCGTTTCAATCACACAGG DNA 2: CCTGTGTGATTGAAACGATTCAGCCTCCCACACAACA with its measured Kd.
Found: 0.018

---
Lookup: Annotate the binder fruB proximal operator (filter binding) (dsDNA) DNA 1: TGTTGTGTGGTTCTTGAAACGTTTCAGCTCACACAGG DNA 2: CCTGTGTGAGCTGAAACGTTTCAAGAACCACACAACA with its measured Kd.
Found: 0.018

Lookup: Annotate the binder aceB operator (filter binding) (dsDNA) DNA 1: TGTTGTGTGGGCTGAATCGCTTAACGTCACACAGG DNA 2: CCTGTGTGACGTTAAGCGATTCAGCCCACACAACA with its measured Kd.
Found: 1.7
